Test system: biotinyl-Ile-oxazolone
Experiment: self-aminoacylation, catalytic enhancement (BIO) (fold over background); higher = more active; k-Seq, kA / k0A0; sequences stand for … in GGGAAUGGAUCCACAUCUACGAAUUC…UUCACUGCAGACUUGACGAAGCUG
Fewer inactive variants are shown than the library holds.
measured metric: self-aminoacylation
Format: numeric value only, no unit, no commentary.

Reference set, count: 3
CUUCUUCACACAAUCGGUCUG [Fam1A.1 aminoacylation ribozyme variant]	0.714
AAGGUUGCUAAUAGUCGCGAG [Fam3.1 aminoacylation ribozyme variant]	1.56
AUUCGCCUAGGACAUCGGGUG [Fam2.2 aminoacylation ribozyme variant]	2.29

Let's switch to this sequence now.
Summary line: CCACACCUCAAGCAAUCGGUC [Fam1B.1 aminoacylation ribozyme variant] , biotinyl-Ile-oxazolone, reported self-aminoacylation = 1.03
